// Vd lookup, one value per entry
Experiment: Volume of distribution at steady state in ICR mouse at 20 mg/kg,iv administration measured upto 4 hrs by LC-MS/MS analysis
Assay type: ADME, organism-based
Settings: in vivo, read-out: Vdss
Entry rule: numbers only, all in L/kg.

Requested field: Vd. Item: "Nc1nc(/C(=N/O[C@@H](C(=O)[O-])C2CCC(F)(F)CC2)C(=O)N[C@@H]2C(=O)N3C(C(=O)O)=C(CSCCNC(=O)c4ccc(O)c(O)c4Cl)CS[C@H]23)cs1.[Na+]"
0.488

// query: "Cc1ccc(S(=O)(=O)O)cc1.Nc1nc(/C(=N/O[C@@H](C(=O)O)C2CCC(F)(F)CC2)C(=O)N[C@@H]2C(=O)N3C(C(=O)O)=C(CSCCNC(=O)c4ccc(O)c(O)c4Cl)CS[C@H]23)cs1"
1.44

* * *

System: Escherichia coli
Assay: Antibacterial activity against ESBL-producing multidrug-resistant Escherichia coli clinical isolate 14-1 assessed as inhibition of bacterial growth incubated for 18 to 20 hrs by two fold serial dilution assay
Assay type: functional
Conditions: time 18-20 hrs
# MIC per entry
Provide the reading as a plain figure in µg/mL.

# count of solved cases: 4
CC(C)(C)C1CCC(C(O/N=C(\C(=O)N[C@@H]2C(=O)N3C(C(=O)O)=C(CSCCNC(=O)c4ccc(O)c(O)c4Cl)CS[C@H]23)c2csc(N)n2)C(=O)O)CC1.O=C(O)C(F)(F)F (stereo not given in full)	0.125
Nc1nc(/C(=N/OC(C(=O)O)C2CCC2)C(=O)N[C@@H]2C(=O)N3C(C(=O)O)=C(CSCCNC(=O)c4ccc(O)c(O)c4Cl)CS[C@H]23)cs1.O=C(O)C(F)(F)F (stereo not given in full)	0.5
CC(C)(O/N=C(\C(=O)N[C@@H]1C(=O)N2C(C(=O)O)=C(CS[C@@H]3C[C@H]4CC[C@@H](C3)N4C(=O)c3ccc(O)c(O)c3Cl)CS[C@H]12)c1csc(N)n1)C(=O)O.O=C(O)C(F)(F)F	0.25
CC(C)C(O/N=C(\C(=O)N[C@@H]1C(=O)N2C(C(=O)O)=C(CSCCNC(=O)c3ccc(O)c(O)c3Cl)CS[C@H]12)c1csc(N)n1)C(=O)O.O=C(O)C(F)(F)F (stereo not given in full)	0.06

Now look at this entry.
Find the measured MIC: item Cc1sc(N)nc1/C(=N/OC(C(=O)O)C1CCC(F)(F)CC1)C(=O)N[C@@H]1C(=O)N2C(C(=O)O)=C(CSCCNC(=O)c3ccc(O)c(O)c3Cl)CS[C@H]12.O=C(O)C(F)(F)F (stereo not given in full) , target or system Escherichia coli.
0.5

* * *

Test system: Escherichia coli
Assay: Antibacterial activity against ESBL-producing multidrug-resistant Escherichia coli clinical isolate 14-2 assessed as inhibition of bacterial growth incubated for 18 to 20 hrs by two fold serial dilution assay
Type: functional
Conditions: time 18-20 hrs
In this section, each of the compounds is paired with its reported log10 of MIC.
Short version: log10 scale, MIC, µg/mL.

See these solved cases before continuing.
CC(C)C(O/N=C(\C(=O)N[C@@H]1C(=O)N2C(C(=O)O)=C(CS[C@H]3CC[C@@H](NC(=O)c4ccc(O)c(O)c4Cl)CC3)CS[C@H]12)c1csc(N)n1)C(=O)O.O=C(O)C(F)(F)F (stereo partly specified)	0.30
CC(C)(O/N=C(\C(=O)N[C@@H]1C(=O)N2C(C(=O)[O-])=C(C[N+]3(CCNC(=O)c4ccc(O)c(O)c4Cl)CCCC3)CS[C@H]12)c1csc(N)n1)C(=O)O [CEFIDEROCOL]	0.00
CC(C)(O/N=C(\C(=O)N[C@@H]1C(=O)N2C(C(=O)O)=C(CSCCCNC(=O)c3ccc(O)c(O)c3Cl)CS[C@H]12)c1csc(N)n1)C(=O)O.O=C(O)C(F)(F)F	0.30
CC(C)(C)C(O/N=C(\C(=O)N[C@@H]1C(=O)N2C(C(=O)O)=C(CS[C@H]3CC[C@@H](NC(=O)c4ccc(O)c(O)c4Cl)CC3)CS[C@H]12)c1csc(N)n1)C(=O)O.O=C(O)C(F)(F)F (stereo partly specified)	0.60
Nc1nc(/C(=N/OC(C(=O)O)C2CCCCC2)C(=O)N[C@@H]2C(=O)N3C(C(=O)O)=C(CSCCNC(=O)c4ccc(O)c(O)c4Cl)CS[C@H]23)c(Br)s1.O=C(O)C(F)(F)F (stereo partly specified)	-0.30

Sample "CC(C)(O/N=C(\C(=O)N[C@@H]1C(=O)N2C(C(=O)O)=C(CS[C@@H]3C[C@H]4CC[C@@H](C3)N4C(=O)c3ccc(O)c(O)c3Cl)CS[C@H]12)c1csc(N)n1)C(=O)O.O=C(O)C(F)(F)F" — what was its log10 of MIC?
1.20

Try this compound too: CC(C)C(O/N=C(\C(=O)N[C@@H]1C(=O)N2C(C(=O)O)=C(CSCCNC(=O)c3ccc(O)c(O)c3Cl)CS[C@H]12)c1csc(N)n1)C(=O)O.O=C(O)C(F)(F)F (stereo partly specified)
0.30

Another: CC(C)(C)C1CCC(C(O/N=C(\C(=O)N[C@@H]2C(=O)N3C(C(=O)O)=C(CSCCNC(=O)c4ccc(O)c(O)c4Cl)CS[C@H]23)c2csc(N)n2)C(=O)O)CC1.O=C(O)C(F)(F)F (stereo partly specified)
-0.30

Would you mind doing CC(C)(C)C(O/N=C(\C(=O)N[C@@H]1C(=O)N2C(C(=O)O)=C(CSCCNC(=O)c3ccc(O)c(O)c3Cl)CS[C@H]12)c1csc(N)n1)C(=O)O.O=C(O)C(F)(F)F (stereo partly specified) as well?
0.00
